Provenance of the data: the supplement of paper PMC10567573

B1: ZER1 (parent)
chain: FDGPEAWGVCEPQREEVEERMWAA

variants of: B1; assay: protein stability index of a GFP-peptide fusion (GPS, HEK-293T) (PSI 1-6); higher = more stable; details: c terminus: a fixed tail appended;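 further: lentivirally expressed fusions sorted by FACS into six bins by GFP to DsRed ratio, PSI derived from sequencing read proportions per bin multiplied by bin number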
Kindly return label 1 if reported protein stability index is no lower than 3; return label 0 if it is lower.

Examples with answers:
A23P	label 0
C10L	label 1
E19T	label 0
A23W	label 0
E15N	label 0
A6D	label 1

Q: Is the recorded value of protein stability index equal to or greater than 3 for this variant? A24T
Ans: label 0

Q: Given W7Y , state whether its protein stability index is at least 3.
Ans: label 1

Q: Please indicate if the recorded protein stability index for R14W meets or exceeds 3.
Ans: label 0

Q: Has V9D a recorded protein stability index greater than or equal to 3?
Ans: label 1

Q: Decide: is the reported value of protein stability index for E11V equal to or greater than 3?
Ans: label 0
